Provide the reported melting point of each item.

Below, each entry is followed by its recorded melting point result.
[[record]]
smi = "COc1ccccc1Nc1nc(C)c(C(=O)NCc2c(C)cc(Cl)cc2Cl)s1"
experimental_result = "142 to 147.7 °C"

[[record]]
smi = "COc1ccccc1Nc1nc(C)c(C(=O)NCc2ccc(-c3csnn3)cc2)s1"
experimental_result = "191.6 to 194.5 °C"

[[record]]
smi = "COc1ccc(CNC(=O)c2cnc(Nc3ccccc3OC)[nH]2)c(OC)c1"
experimental_result = "134.1 to 136.2 °C"


Give me melting point for each of these molecules, listed below.
1. COc1ccccc1Nc1nc(C)c(C(=O)N2CCC(n3c(=O)[nH]c4ccccc43)CC2)s1
2. COc1ccccc1Nc1nc(C)c(C(=O)NCc2ccccc2)o1
3. CC[C@H](NC(=O)c1sc(Nc2ccccc2OC)nc1C)c1ccccc1
4. COc1ccccc1Nc1nc(C)c(C(=O)NCc2ccc(C(=O)N(C)C)cc2)s1
5. COc1ccccc1Nc1nc(C)c(C(=O)NCc2ccc3c(c2)OCO3)s1
6. COc1ccccc1Nc1nc(C)c(C(=O)N[C@@H](C(=O)O)c2ccccc2)s1

Solution:
1: > 250 °C; 2: 125.9 to 130.2 °C; 3: 66.5 to 70.4 °C; 4: 219.1 to 226.7 °C; 5: 166 to 167.4 °C; 6: 258.6 to 262.9 °C
